# credit: patent US8802664B2

List of Ki or IC50 activity class values.
Biological target: human H4 receptor (Homo sapiens, UniProt Q9H3N8)
Construct: expressed in transfected cells
Sequence (Q9H3N8 whole entry): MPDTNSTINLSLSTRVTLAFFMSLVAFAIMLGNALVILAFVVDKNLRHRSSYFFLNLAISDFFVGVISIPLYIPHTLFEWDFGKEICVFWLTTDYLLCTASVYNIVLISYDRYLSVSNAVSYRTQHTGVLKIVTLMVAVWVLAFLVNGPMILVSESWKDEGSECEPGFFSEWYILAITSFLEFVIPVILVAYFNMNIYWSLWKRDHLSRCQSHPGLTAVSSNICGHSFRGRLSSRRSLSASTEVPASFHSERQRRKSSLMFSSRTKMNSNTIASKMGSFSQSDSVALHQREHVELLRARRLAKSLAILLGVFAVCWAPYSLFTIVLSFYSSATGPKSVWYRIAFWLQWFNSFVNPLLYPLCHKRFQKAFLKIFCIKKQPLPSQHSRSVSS
Assay: [3H]Histamine binding on membranes of CHO cells stably expressing human H4 receptor
Experimental: CHO cells stably expressing human H4 receptor were grown until sub-confluence and centrifuged at 300 g 15 minutes at 4° C. Pellets were resuspended in buffer I Tris-HCl 50 mM, MgCl2 10 mM, NaCl 140 mM, pH=7.4 supplemented by a 1/50 dilution of a mix of protease inhibitors. […] Protein content is measured by the Bradford method. […] The filter-bound radioactivity was measured in a liquid scintillation counter Microbeta TRILUX® with 50 μl of scintillation fluid. […]

CN1CCC(OC(c2cccc(N3CCC(O)C3)c2)c2nc3ccccc3s2)CC1 (stereo not drawn)
< 30 nM
CN1CCC(OC(c2cccc(Br)c2)c2nc3cc(F)c(F)c(F)c3[nH]2)CC1 (stereo not drawn)
< 1000 nM
CN1CCC(OC(c2cccc(SCC=CCN)c2)c2nc3ccccc3[nH]2)CC1 (stereo not drawn)
< 30 nM
CN1CCC(OC(c2cccc(Br)c2)c2nc3cc(F)ccc3[nH]2)CC1 (single isomer, unassigned) [Example 568]
< 30 nM
CCSc1cccc(C(OC2CCN(C)CC2)c2nc3ccccc3[nH]2)c1 (stereo not drawn)
< 30 nM

Which Ki or IC50 activity class value is on record for CN1CCC(NC(c2cccc(OCCOc3ccccc3)c2)c2nc3ccccc3[nH]2)CC1 (stereo not drawn) ?
< 300 nM

Which Ki or IC50 activity class value is on record for CN1CCC(OC(c2ccc3c(c2)OCCO3)c2nc3ccccc3s2)CC1 (stereo not drawn) ?
< 30 nM

Which Ki or IC50 activity class value is on record for CN1CCC(OC(c2cccc(N3CC(O)C3)c2)c2nc3ccccc3s2)CC1 (stereo not drawn) ?
< 300 nM

Which Ki or IC50 activity class value is on record for COC(=O)CSc1cccc(C(OC2CCN(C)CC2)c2nc3ccccc3s2)c1 (stereo not drawn) ?
< 30 nM

Which Ki or IC50 activity class value is on record for CN1CCC(OC(c2cccc(CCC(=O)OC(C)(C)C)c2)c2nc3ccccc3s2)CC1 (stereo not drawn) ?
< 300 nM
